# Test system: tau stress granules
# testDetails: SY5Y-tT1 tau arsenite assay (tau stress granules per cell)
# Format: cell-based
# testParameters: SY5Y-tT1 cells, 2 hours compound, 90 minutes arsenite, 50% reduction of granules per cell, read-out: IC50, Inhibitor Activity of Tau Stress Granules
# Description: Example 91: In Vitro Efficacy Assay of Exemplary Compounds—SY5Y-tT1 Tau Arsenite/Thapsigargin Assay • Before harvesting cells—checked to see if cells are ~80% confluency in their flask • 1. Aspirated growth media from flask. • 2. Added 4 mL of (0.25%) trypsin-EDTA (REF: 25200-056) • 3. Placed in 37° C. incubator for 5 minutes. • 4. Removed from incubator and added 11 mL growth media, washing any remaining cells adhered to the bottom of the flask. • 5. […]
Kindly state IC50 for each of the entries shown.

Value lookup for IC50; key = Cc1cc(-c2ccc(CN(C)C)cc2)sc1C(=O)N1CC[C@H](N)C1 1 to 2 µM

Value lookup for IC50; key = Cc1cc(-c2ccc(N3CCN(C(C)C)CC3)cc2)sc1C(=O)N1CC[C@H](N)C1 0.5 to 1 µM

Value lookup for IC50; key = Cc1cc(-c2cc(C)c(C(=O)N3CC[C@H](N)C3)s2)ccc1C1CCN(C)CC1 2 to 6 µM

Value lookup for IC50; key = C=Cc1cc(-c2ccc(C3CCN(C(C)C)CC3)cc2)sc1C(=O)N1CC[C@H](N)C1 1 to 2 µM

Where these numbers come from: patent US20260258025A1
